Task for the reader: assign each of the following compounds its reported GI50.
System: UO-31
Experiment: NCI tumour cell line growth inhibition, 48 h
Calls of active or inactive are those of the source. Rule as the data show it: active = GI50 up to about 1.1 µM and inactive = higher.

See these solved cases before continuing.
compound: COc1c(Br)cc(Br)c(OC)c1-c1ccc[nH]1
assay-value: 43.3 µM (inactive)
//
compound: Cc1cc(=O)nc(S(=O)(=O)NC(=S)Nc2ccc(Br)cc2)[nH]1
assay-value: > 100 µM (inactive)
//
compound: CCOC1=C(c2ccccc2)N2CCCCC2O1 (stereo unspecified)
assay-value: 19.8 µM (inactive)
//
compound: N#C/C(=C\c1ccccc1F)C(=O)c1ccccc1
assay-value: > 100 µM (inactive)
//
compound: COC(=O)c1nc(-c2ccc(Cl)c(Cl)c2)nc2ccc(Cl)cc12
assay-value: 33.6 µM (inactive)

Qu. Requested read-out: GI50. Entry: "CN(C)CCNC(=O)c1cc(-c2nccn2C)nc2ccccc12"
Ans. 52.8 µM (inactive)

* * *

Test system: PC-3
Assay: NCI tumour cell line growth inhibition, 48 h
The source made the active and inactive calls. Rule as the data show it: active = GI50 up to about 1.1 µM and inactive = higher.
// allowed return values: yes (1) (active), no (0) (inactive)

For orientation, consider the following solved cases.
compound: CCOC(=O)C(=O)/C(=C/n1c(=S)[nH]c2ccc([N+](=O)[O-])cc21)C(=O)OCC
cat: no (0)
//
compound: Oc1c(Cl)ccc2cccnc12
cat: no (0)
//
compound: CC1(C)Cc2ccccc2C(C)(Cl)C(=O)N1 (stereo not given)
cat: no (0)

Qu. Dear colleague, could you share the recorded outcome for "COc1cc(Cc2nccc3cc(OC)c(OC)cc23)c(/N=N/N(C)C)cc1OC" when you have a moment?
Ans. no (0)

Qu. Dear colleague, could you share the recorded outcome for CCCCCCNC(=O)CCC(NC(=O)c1ccc(N(C)Cc2cnc3nc(N)nc(N)c3n2)cc1)C(=O)NCCCCCC (stereo not given) when you have a moment?
Ans. no (0)

Qu. Dear colleague, could you share the recorded outcome for "C=CCN1C(=O)/C(=C\c2cc(C(C)(C)C)c(O)c(C(C)(C)C)c2)NC1=S" when you have a moment?
Ans. no (0)

* * *

Starred links: 1 amine or outer side, 2 acyl side, 3 side chain; linkers in the order of their positions; H or OH if unused. Positions of bridges follow the written chain, without caps; N, C: chain ends. Non-standard residues stand in square brackets, D forms with d. Residues, ends and D or L forms follow the SMILES beside them. ξ: configuration not given here. *: point of attachment. γ4hArg(2R,3R-(OH)2) = N=C(N)NCCC[C@H](N[*:1])[C@@H](O)[C@@H](O)C(=O)[*:2]; Gln(3S,4R-Me2) = C[C@H]([C@H](N)C(=O)O)[C@@H](C)C(N)=O; X50 = CC(C)C[C@H](C)[C@@H](O)[C@@H](C)C(=O)*; X51 = COC(c1ccc(O)cc1)C(N[*:1])C(=O)[*:2]; NMeQ = CN[C@@H](CCC(N)=O)C(=O)O; Thr(3ξ) = CC(O)[C@H](N)C(=O)O; NMeA = CN[C@@H](C)C(=O)O
The reader will find GI50 measurements below, all made with HCT-15.
Give bare numbers, in µM.

molecule: O=C1Nc2ccccc2/C1=N/NC(=S)NCc1ccccn1
experimental-system: HCT-15
unit-tag: µM
GI50: 0.0326
--
molecule: CC(=O)CC(=O)Nc1ccc2ccccc2c1
experimental-system: HCT-15
unit-tag: µM
GI50: 95.3
--
molecule: CC(=O)Nc1ccc2c(c1)/C(=N/c1ccc(C(=O)O)cc1)c1ccccc1-2
experimental-system: HCT-15
unit-tag: µM
GI50: 43.9
--
molecule: COC1OC(Cc2nnc(C)o2)C(OCc2ccccc2)C(OCc2ccccc2)C1OCc1ccccc1 (stereo not drawn)
experimental-system: HCT-15
unit-tag: µM
GI50: 35.9
--
molecule: Cc1sc(N/N=C2\C(=O)Nc3ccccc32)nc1-c1ccccc1
experimental-system: HCT-15
unit-tag: µM
GI50: 9.38

Could you report GI50 for every entry in the following list?
1. O=C(CCc1n[nH]c(=S)o1)Nc1cc(Cl)ccc1Cl
2. CC(=O)Nc1ccc(-c2nnc(SCC(=O)Nc3ccc([N+](=O)[O-])cc3)o2)cc1
3. COC(c1ccc(O)cc1)C1NC(=O)[C@H](CCC(N)=O)N(C)C(=O)[C@H](CC(C)C)NC(=O)[C@@H](CCCN=C(N)N)NC(=O)[C@H](C(C)O)NC(=O)[C@@H](NC(=O)[C@@H](NC(=O)[C@H](O)[C@H](O)[C@H](CCCN=C(N)N)NC(=O)[C@H](C)NC(=O)[C@H](C)[C@H](O)[C@@H](C)CC(C)C)[C@@H](C)[C@@H](C)C(N)=O)[C@@H](C)OC(=O)[C@H](C)N(C)C1=O (stereo partly drawn) (X50-A[γ4hArg(2R,3R-(OH)2)][Gln(3S,4R-Me2)]T[Thr(3ξ)][dR]L[NMeQ][X51][NMeA]; ester 4-C)
4. O=c1c2ccccc2sc2c(CO)ccc(NCCN3CCCCC3)c12

Ans.
20.7
12.9
0.133
3.56

* * *

Tested on: CAKI-1
Test: NCI tumour cell line growth inhibition, 48 h
Activity calls are given as the source filed them. Rule as the data show it: active = GI50 up to about 1.1 µM and inactive = higher.
measure-name: GI50

See these solved cases before continuing.
molecule: CCOC(=O)c1ccc(C(=O)/C(C#N)=C2\CCCN2C)[nH]1
GI50: > 100 µM (inactive)
--
molecule: Cc1coc2c1CC1OC1(C)CCC1OC1(C)C2 (stereo unspecified)
GI50: > 100 µM (inactive)
--
molecule: O=C1C=CC2(O[C@@H](Cc3ccccc3)[C@H](Cc3ccccc3)O2)C(SC(=O)c2ccccc2)C1 (stereo partly specified)
GI50: 1.26 µM (inactive)
--
molecule: Nc1nnnn1CCO
GI50: > 100 µM (inactive)
--
molecule: CN(C)CCOC(=O)c1ccc(N)cc1
GI50: 32.3 µM (inactive)

# input for lookup
Qu. Requested read-out: GI50. Entry: "Cc1ccc2c(c1)C(=O)c1ccc(C)nc1C2=O"
Ans. 41.7 µM (inactive)

* * *

System: NCI-H522
Assay: NCI tumour cell line growth inhibition, 48 h
Active and inactive are the calls of the source. Rule as the data show it: active = GI50 up to about 1.1 µM and inactive = higher.
// allowed return values: 1 (active), -1 (inactive)

compound: O=[N+]([O-])c1cc(Cl)ccc1S(=O)(=O)c1ccccc1
experimental-system: NCI-H522
cat: -1

Qu. Dear colleague, could you share the recorded outcome for Cc1ccc(-n2c(Cn3nnc(-c4cccnc4)n3)nn(C3OC(COC(=O)c4ccccc4)C(OC(=O)c4ccccc4)C3OC(=O)c3ccccc3)c2=S)cc1 (centres undefined) when you have a moment?
Ans. -1

Qu. Dear colleague, could you share the recorded outcome for "CC(C)C[C@H](NC(=O)[C@@H](N)Cc1cccc2ccccc12)B(O)O" when you have a moment?
Ans. 1

Qu. Dear colleague, could you share the recorded outcome for CCSc1nc(-c2ccc(OC)cc2)c(C#N)c(=O)n1C1OCC(OC(C)=O)C(OC(C)=O)C1OC(C)=O (centres undefined) when you have a moment?
Ans. -1

Qu. Dear colleague, could you share the recorded outcome for COc1ccc2c(c1)CC[C@@H]1C2CC[C@]2(C)C(=O)N(CCN3CCCC3)C(=O)CC12 (some centres undefined) when you have a moment?
Ans. -1

Qu. Dear colleague, could you share the recorded outcome for "CC1=[N+](C)CCN1C" when you have a moment?
Ans. -1

Qu. Dear colleague, could you share the recorded outcome for "Cc1cc(S(=O)(=O)Nc2nc(N)nc(N(C)C)n2)c(S)cc1Cl" when you have a moment?
Ans. -1

Qu. Dear colleague, could you share the recorded outcome for "C/C(CC(=O)NCCc1ccccc1)=N\NS(=O)(=O)c1ccc(C)cc1" when you have a moment?
Ans. -1

* * *

Tested on: A549
Test: NCI tumour cell line growth inhibition, 48 h
The source made the active and inactive calls. No stated cut-off is given here; in the data, active = GI50 up to about 1.1 µM and inactive = higher.
Task for the reader: assign each of the following molecules its reported GI50.

molecule: O=C1NC(=O)C2(CCCCCC2)N1
GI50: > 100 µM (inactive)
--
molecule: C/C(C=O)=C1\C(O)C[C@]1(C)C1CC(C)(C)CC1O (stereo partly specified)
GI50: > 100 µM (inactive)
--
molecule: CC(C)(C)c1cc(/C=C(\C#N)C(=O)NCCO)cc(C(C)(C)C)c1O
GI50: 27.4 µM (inactive)
--
molecule: CN1CC[C@]2(C)c3ccc(O)cc3CC3CCCC1C32C (stereo partly specified)
GI50: > 100 µM (inactive)

Could you report GI50 for every entry in the following list?
1. CCOC(=O)c1c(C)n(Cc2ccccc2)c2c1cc(O)c1[nH]c3c(c12)CCCC3
2. ClC1=C(Cl)C(Cl)(Cl)c2c3c(c4c(c21)C(Cl)(Cl)C(Cl)=C4Cl)C(Cl)(Cl)C(Cl)=C3Cl

Ans.
1: 6.52 µM (inactive); 2: > 100 µM (inactive)

* * *

Task for the reader: assign each of the following compounds its reported GI50.
Test system: SN12C
Assay: NCI tumour cell line growth inhibition, 48 h
Active and inactive are the calls of the source. No stated cut-off is given here; in the data, active = GI50 up to about 1.1 µM and inactive = higher.

compound: O=C(CNC(c1ccccc1)(c1ccccc1)c1ccccc1)NC1CCCCC1NC(=O)CNC(c1ccccc1)(c1ccccc1)c1ccccc1 (stereo not given)
GI50: > 100 µM (inactive)

compound: CC(C)(C)OC(=O)N(O)[C@@H]1CC[C@H](n2cnc3c(N)ncnc32)C1
GI50: > 100 µM (inactive)

compound: CCN(CC)c1c(C)c(C(=O)OC)nn1-c1ccccc1
GI50: > 100 µM (inactive)

compound: O=C(Nc1ccc(F)cc1)c1cc2ccc(O)cc2o/c1=N\c1ccccc1F
GI50: 51.8 µM (inactive)

# input for lookup
Qu. Requested read-out: GI50. Entry: "COc1cccc(CCN2CCN(CCCc3ccccc3)CC2)c1"
Ans. > 100 µM (inactive)
